# ASSAY COMMENT: photoluminescence quantum yield (fraction); solvent given as SMILES
# ASSAY CONTEXT: in c1cc(-c2cccc(-n3c4ccccc4c4ccccc43)c2)cc(-n2c3ccccc3c3ccccc32)c1
Class definitions on photoluminescence quantum yield: bottom: < 0.7; middle: ≥ 0.7 and < 0.9; top: ≥ 0.9

Sample answers from the record:
INPUT SMILES	ANSWER LABEL
O=C(c1ccncc1)c1ccc(-n2c3ccc(-n4c5ccccc5c5ccccc54)cc3c3cc(-n4c5ccccc5c5ccccc54)ccc32)cc1	top
CC(C)(C)c1ccc2c(c1)c1cc(C(C)(C)C)ccc1n2-c1cc(C(=O)c2ccccc2)cc(-n2c3ccc(C(C)(C)C)cc3c3cc(C(C)(C)C)ccc32)c1	middle
O=C(c1ccc(C(=O)c2ccc(N3c4ccccc4Oc4ccccc43)cc2)cc1)c1ccc(N2c3ccccc3Oc3ccccc32)cc1	bottom

q: For this molecule, which bin applies? CC(C)c1cc(C(C)C)c(B2c3cc(-n4c5ccc(C(C)(C)C)cc5c5cc(C(C)(C)C)ccc54)ccc3N(c3ccccc3)c3ccc(-n4c5ccc(C(C)(C)C)cc5c5cc(C(C)(C)C)ccc54)cc32)c(C(C)C)c1
a: top

q: Returns: class label. Input: CC(C)c1cc(C(C)C)c(B2c3cc(N4c5ccccc5C(C)(C)c5ccccc54)ccc3N(c3ccccc3)c3ccc(N4c5ccccc5C(C)(C)c5ccccc54)cc32)c(C(C)C)c1
a: top
